Assay: Rat serum stability studies (remaining active peptide by DiscoveRx cAMP on CHO-VPAC2 cells)
Assay type: in vitro ADME
Where no end group is shown, it is not given here. [ ]: non-standard residue; d: D form. The star is where a group is joined. Hexanoyl = CCCCCC(=O)*; Aib = CC(C)(N)C(=O)O
Classification field: enter YES for Rat Serum Stability (estimated purity in % after 18 hours) values not below 10%, NO for values below it.

substance="Hexanoyl-HSDAVFTDNYTRLRKQVAAKKYIQSIKNKRYGGPSSGAPPPS [Agonist P233]" category_label=NO

Evaluate Hexanoyl-HSDAVFTDNYTRLQKQVAAKKYLQSIKNKRYGGPSSGAPPPS [Agonist P172] : Rat Serum Stability (estimated purity in % after 18 hours) at minimum 10%?
NO

Evaluate Hexanoyl-HSDAVFTDNYTRLR[Aib]QKAA[Aib]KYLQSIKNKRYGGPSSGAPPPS [Agonist P323] : Rat Serum Stability (estimated purity in % after 18 hours) at minimum 10%?
YES

Evaluate Hexanoyl-HSDAVFTDNYTRLRKQVAAKKYFQSIKNKRYGGPSSGAPPPS [Agonist P231] : Rat Serum Stability (estimated purity in % after 18 hours) at minimum 10%?
NO

Evaluate Hexanoyl-HSDAVFTDNYTRLRKQVAAK[Aib]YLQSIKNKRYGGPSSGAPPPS [Agonist P170] : Rat Serum Stability (estimated purity in % after 18 hours) at minimum 10%?
NO

Evaluate Hexanoyl-HSDAVFTDNYTRLRKQVAAWKYLQSIKNKRYGGPSSGAPPPS [Agonist P153] : Rat Serum Stability (estimated purity in % after 18 hours) at minimum 10%?
NO

Evaluate Hexanoyl-HSDAVFTDNYTRLLAKLAAQKYLQSIKNKRYGGPSSGAPPPS [Agonist P197] : Rat Serum Stability (estimated purity in % after 18 hours) at minimum 10%?
NO

Evaluate Hexanoyl-HSDAVFTDNYTRLQ[Aib]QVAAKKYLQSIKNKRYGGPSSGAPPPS [Agonist P258] : Rat Serum Stability (estimated purity in % after 18 hours) at minimum 10%?
NO

Evaluate Hexanoyl-HSDAVFTDNYTRLRKQVAAKKYLQSIKNKRFGGPSSGAPPPS [Agonist P203] : Rat Serum Stability (estimated purity in % after 18 hours) at minimum 10%?
NO

Evaluate Hexanoyl-HSDAVFTDNYTRLLKQVAAKKYLQSIKNKRYGGPSSGAPPPS [Agonist P174] : Rat Serum Stability (estimated purity in % after 18 hours) at minimum 10%?
NO

Evaluate Hexanoyl-HSDAVFTDNYTRLR[Aib]QIAA[Aib]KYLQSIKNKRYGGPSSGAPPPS [Agonist P322] : Rat Serum Stability (estimated purity in % after 18 hours) at minimum 10%?
YES
